Listed below: growth inhibition values for each entry.
assay: NCI Yeast Anticancer Drug Screen. Data for the cln2 rad14 strain (AID 165);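 also: 0% = growth equal to vehicle treated cultures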
measurementContext: S. cerevisiae cln2 rad14 strain, at 50.0 µM, hits give high values
This is part of a sample that, as a whole, favours compounds with a hit. Of some 79,000 tested, about 15% had one in any assay. Active and inactive are the calls of the source. Rule as the data show it: active = growth inhibition above about 70%; inactive = the rest.

Solved entries (count: 8):
ClC1=CC(Cl)=C2N=C(N3CCCC3)N=C3N=C(C(Cl)(Cl)Cl)N=C1N32 :: -13.4% (inactive)
COC(=O)C(C(=O)C(=O)Nc1ccc(Br)cc1)c1nc2ccc(Cl)cc2[nH]c1=O (stereo not given) :: 7.05% (inactive)
CC1(C)N=C(N)N=C(N)N1c1cccc(OCc2cccc([N+](=O)[O-])c2)c1 :: 24.6% (inactive)
C=CS(=O)(=O)c1ccc(NC(=O)Nc2ccc(Cl)cc2)cc1 :: 12.8% (inactive)
COC(=O)C1C(COS(C)(=O)=O)ON2CCC(OC)(OC)C12 (stereo not given) :: -15.8% (inactive)
CC1(C)CC(=O)c2c([nH]c(=S)c(C#N)c2-c2ccc(Br)cc2)C1 :: -11.8% (inactive)
CCSCC1OC(n2cnc3c(=S)nc(N)[nH]c32)C(O)C1O (stereo not given) :: 16.4% (inactive)
Cc1ccc(N2C(=O)CS/C2=C(\C#N)c2nc3ccccc3[nH]2)cc1 :: -57.9% (inactive)

Data request: Please report the measured growth inhibition for CCCNC(=S)N/N=C/c1cccc(C)n1
Data returned: 15.2% (inactive)

Data request: Please report the measured growth inhibition for COC(=O)c1cc(NC(=O)Nc2ccc(F)c([N+](=O)[O-])c2)cc(C(=O)OC)c1
Data returned: 7.3% (inactive)

* * *

Listed below: growth inhibition values for each entry.
assay: NCI Yeast Anticancer Drug Screen. Data for the sgs1 mgt1 strain (AID 161);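 also: 0% = growth of cultures given vehicle only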
measurementContext: S. cerevisiae sgs1 mgt1 strain, at 50.0 µM, hits give high values
About 79,000 compounds went through this panel and 15% of them were active in at least one assay; those are over-represented in the sample as a whole.
Write the value in % as a bare number.

Solved entries (count: 2):
Cc1cc2c(cc1C)[n+](=O)c(C(=O)C/C(=N/OCCCc1ccccc1)C(=O)Nc1cc(Cl)ccc1Cl)c(C)n2[O-] :: -7.2
COc1c2c(c3ccccc3c1O)C1C=CC2C1 (stereo unspecified) :: -37.7

Data request: Please report the measured growth inhibition for C[n+]1ccccc1CCC(=O)Nc1ccccc1
Data returned: 2.05

* * *

assay: NCI Yeast Anticancer Drug Screen. Data for the mec2-1 strain (AID 157)
measurementContext: S. cerevisiae mec2-1 strain, at 50.0 µM, hits give high values
About 79,000 compounds went through this panel and 15% of them were active in at least one assay; those are over-represented in the sample as a whole. Calls of active or inactive are those of the source. Cut-off read from the data, not from the text of the source: active = growth inhibition above about 70%; inactive = the rest.
measuredProperty: growth inhibition

Solved entries (count: 3):
CC1CCCC(C)C1O (configuration not stated) :: -28.1% (inactive)
NNC(=S)NC1CCCCC1 :: -4.45% (inactive)
O=C(CCl)Nc1ccc(O)c2ccccc12 :: 4.65% (inactive)

Data request: Please report the measured growth inhibition for CCOC(=O)C(C#N)C1CC2CCC1C2 (configuration not stated)
Data returned: -57.4% (inactive)

Data request: Please report the measured growth inhibition for C/C(O)=C(\C=NC(=S)c1ccncc1)C(=O)Nc1ccccc1C
Data returned: -37.6% (inactive)
